Provide the recorded Mono for the entries that follow.
Species on record: Rattus norvegicus
Assay: Open TG-GATES - Regimen: Single
Format: toxicity, organism-based, Sprague-Dawley
Set-up: regimen Single, gender Male, age 6 weeks
Settings: in vivo, po, 0 mg/kg, 3 h, tissue Blood, route gavage, dose level Control
Report as a plain number; the unit % is understood.

Q: Supply measured Mono of NNC(=O)c1ccncc1 in your reply.
Result: 3

Q: Supply measured Mono of CC/C(=C(\c1ccccc1)c1ccc(OCCN(C)C)cc1)c1ccccc1 in your reply.
Result: 3.6

Q: Supply measured Mono of CCOC(=O)CCC(=O)O[C@H]1[C@H](O[C@@H]2[C@@H](C)[C@H](O[C@H]3C[C@@](C)(OC)[C@@H](O)[C@H](C)O3)[C@@H](C)C(=O)O[C@H](CC)[C@@](C)(O)[C@H](O)[C@@H](C)C(=O)[C@H](C)C[C@@]2(C)O)O[C@H](C)C[C@@H]1N(C)C [ERYTHROMYCIN ETHYLSUCCINATE] in your reply.
Result: 2

Q: Supply measured Mono of CCCNC(=O)NS(=O)(=O)c1ccc(Cl)cc1 [CHLORPROPAMIDE] in your reply.
Result: 3.4
